# Test system: KRAS-mutant PDC tumor spheroid with HUVEC/MSC, viability;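 also: spheroids exposed to agents for seven days before reading; 100% = DMSO vehicle wells so lower means fewer viable cells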
# protocol-text: Anticancer human tumor 327498-153-R-J2-PDC patient-derived uterine carcinosarcoma cell line growth inhibition [KRAS2]
# measurement-parameters: second compound 1 µM; first compound 3.16 µM; stronger effect = lower value
measured-endpoint: viability, T/C (%)
Numeric answer only, unit % assumed.

CC1(C)CCC(CN2CCN(c3ccc(C(=O)NS(=O)(=O)c4ccc(NCC5CCOCC5)c([N+](=O)[O-])c4)c(Oc4cnc5[nH]ccc5c4)c3)CC2)=C(c2ccc(Cl)cc2)C1 + CNCc1ccccc1-c1csc(C(C)Nc2nc(C)nc3cc(OC)c(OC)cc23)c1 ... 33.2

Task: Given the entry COc1cc(Nc2ncc3c(n2)-c2ccc(Cl)cc2C(c2c(F)cccc2OC)=NC3)ccc1C(=O)O + COc1cc2nc(C)nc(NC(C)c3cc(N)cc(C(F)(F)F)c3)c2cc1OC1CCOC1 , report its measured viability, T/C.
Result: 11.7

Task: Given the entry CC1COCCN1c1cc(-c2ccnn2C)c2ccnc(-c3ccn[nH]3)c2n1 (stereo not drawn) + C=CC(=O)N1CCN(c2nc(OCC3CCCN3C)nc3c2CCN(c2cccc4cccc(C)c24)C3)CC1CC#N , report its measured viability, T/C.
Result: 3.92
